Entries and their Ratio
Target: Adrenergic receptors; alpha-1 A & B (Homo sapiens) (UniProt P35348+P35368)
Assay: Ratio of binding affinity towards Alpha1b to Alpha-1A
Type: protein assay

compound="COc1ccc(N2C(=O)c3ccc(C(=O)NCC(O)CN4CCN(c5ccccc5OC(C)C)CC4)cc3C2=O)cc1OC (stereo unspecified)" recorded_metric=Ratio val="> 2040"
compound=CC(C)Oc1ccccc1N1CCN(CCCNC(=O)c2ccc3c(c2)C(=O)N(c2ccc(N(C)C)cc2)C3=O)CC1 recorded_metric=Ratio val=2580
compound="CC(C)Oc1ccccc1N1CCN(CC(O)CNC(=O)c2ccc3c(c2)C(=O)N(c2ccccc2)C3=O)CC1 (stereo unspecified)" recorded_metric=Ratio val="> 1820"
compound=CC(C)Oc1ccccc1N1CCN(C[C@@H](O)CNC(=O)c2ccc3c(c2)C(=O)N(c2ccc(O)cc2)C3=O)CC1 recorded_metric=Ratio val="> 4350"
compound=CC(C)Oc1ccccc1N1CCN(CCCNC(=O)c2ccc3c(c2)C(=O)N(c2cccc(F)c2)C3=O)CC1 recorded_metric=Ratio val=1180

**Query** State its Ratio for this compound: COc1ccccc1N1C(=O)c2ccc(C(=O)NCC(O)CN3CCN(c4ccccc4OC(C)C)CC3)cc2C1=O (stereo unspecified)
**Result** 1110

**Query** State its Ratio for this compound: CC(C)Oc1ccccc1N1CCN(CC(O)CNC(=O)c2ccc3c(c2)C(=O)N(c2ccc(N(C)C)cc2)C3=O)CC1 (stereo unspecified)
**Result** > 2000

**Query** State its Ratio for this compound: CC(C)Oc1ccccc1N1CCN(CC(O)CNC(=O)c2ccc3c(c2)C(=O)N(c2ccc(O)cc2)C3=O)CC1 (stereo unspecified)
**Result** > 2270

###

Biological target: D(4) dopamine receptor (Homo sapiens)
Assay: Compound at 1 uM was tested for the inhibition of radioligand [3H]spiperone binding to recombinant human Dopamine receptor D4.7
Entries and their inhibition
State just the number; it will be interpreted in %.

Solved cases below.
substance_smiles=CC(C)Oc1ccccc1N1CCN(C[C@@H](O)CNC(=O)c2ccc3c(c2)C(=O)N(c2ccc(N(C)C)cc2)C3=O)CC1 recorded_metric=inhibition val=50
substance_smiles=CC(C)Oc1ccccc1N1CCN(C[C@@H](O)CNC(=O)c2ccc3c(c2)C(=O)N(c2cccc(F)c2)C3=O)CC1 recorded_metric=inhibition val=43
substance_smiles=CCOc1ccccc1OCCN[C@H](C)Cc1ccc(OC)c(S(N)(=O)=O)c1 recorded_metric=inhibition val=21
substance_smiles=Cc1ccc(N2C(=O)c3ccc(C(=O)NCCCN4CCN(c5ccccc5OC(C)C)CC4)cc3C2=O)cc1 recorded_metric=inhibition val=20
substance_smiles=COc1ccc(N2C(=O)c3ccc(C(=O)NCCCN4CCN(c5ccccc5OC(C)C)CC4)cc3C2=O)cc1 recorded_metric=inhibition val=32

Now let's try a different one.
**Query** State its inhibition for this compound: "CC(C)Oc1ccccc1N1CCN(CCCNC(=O)c2ccc3c(c2)C(=O)N(c2cccc(F)c2)C3=O)CC1"
**Result** 69

###

Target: D(2) dopamine receptor (Homo sapiens)
Sequence (P14416 whole entry): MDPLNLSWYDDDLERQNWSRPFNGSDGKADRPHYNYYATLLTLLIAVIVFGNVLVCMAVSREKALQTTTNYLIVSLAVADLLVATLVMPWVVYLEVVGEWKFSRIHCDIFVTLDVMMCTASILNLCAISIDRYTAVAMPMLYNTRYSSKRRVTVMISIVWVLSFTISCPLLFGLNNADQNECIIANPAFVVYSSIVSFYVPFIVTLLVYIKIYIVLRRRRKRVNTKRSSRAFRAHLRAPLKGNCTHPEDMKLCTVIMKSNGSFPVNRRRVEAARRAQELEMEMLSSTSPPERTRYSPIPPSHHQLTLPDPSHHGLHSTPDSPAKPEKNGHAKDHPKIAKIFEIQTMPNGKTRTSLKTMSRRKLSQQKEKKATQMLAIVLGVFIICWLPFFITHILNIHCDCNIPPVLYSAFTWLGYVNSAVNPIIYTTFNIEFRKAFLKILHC
Experiment: Compound at 1 uM was tested for the inhibition of radioligand [3H]spiperone binding to recombinant human Dopamine receptor D2L
recorded.metric: inhibition (%)
State just the number; it will be interpreted in %.

substance_smiles=Cc1ccc(N2C(=O)c3ccc(C(=O)NCCCN4CCN(c5ccccc5OC(C)C)CC4)cc3C2=O)cc1 recorded_metric=inhibition val=83
substance_smiles=Cc1ccc(N2C(=O)c3ccc(C(=O)NC[C@H](O)CN4CCN(c5ccccc5OC(C)C)CC4)cc3C2=O)cc1 recorded_metric=inhibition val=68
substance_smiles=COc1ccc(N2C(=O)c3ccc(C(=O)NCCCN4CCN(c5ccccc5OC(C)C)CC4)cc3C2=O)cc1 recorded_metric=inhibition val=83
substance_smiles=CC(C)Oc1ccccc1N1CCN(CCCNC(=O)c2ccc3c(c2)C(=O)N(c2cccc(F)c2)C3=O)CC1 recorded_metric=inhibition val=89

**Query** State its inhibition for this compound: "CC(C)Oc1ccccc1N1CCN(C[C@@H](O)CNC(=O)c2ccc3c(c2)C(=O)N(c2cccc(F)c2)C3=O)CC1"
**Result** 55

**Query** State its inhibition for this compound: "CC(C)Oc1ccccc1N1CCN(C[C@@H](O)CNC(=O)c2ccc3c(c2)C(=O)N(c2ccc(N(C)C)cc2)C3=O)CC1"
**Result** 71

**Query** State its inhibition for this compound: "CCOc1ccccc1OCCN[C@H](C)Cc1ccc(OC)c(S(N)(=O)=O)c1"
**Result** 53
